Study System: human CB1 receptors (Homo sapiens, UniProt P21554)
Construct: expressed in transfected cells; host or cells: CHO cells
Sequence (P21554 whole entry): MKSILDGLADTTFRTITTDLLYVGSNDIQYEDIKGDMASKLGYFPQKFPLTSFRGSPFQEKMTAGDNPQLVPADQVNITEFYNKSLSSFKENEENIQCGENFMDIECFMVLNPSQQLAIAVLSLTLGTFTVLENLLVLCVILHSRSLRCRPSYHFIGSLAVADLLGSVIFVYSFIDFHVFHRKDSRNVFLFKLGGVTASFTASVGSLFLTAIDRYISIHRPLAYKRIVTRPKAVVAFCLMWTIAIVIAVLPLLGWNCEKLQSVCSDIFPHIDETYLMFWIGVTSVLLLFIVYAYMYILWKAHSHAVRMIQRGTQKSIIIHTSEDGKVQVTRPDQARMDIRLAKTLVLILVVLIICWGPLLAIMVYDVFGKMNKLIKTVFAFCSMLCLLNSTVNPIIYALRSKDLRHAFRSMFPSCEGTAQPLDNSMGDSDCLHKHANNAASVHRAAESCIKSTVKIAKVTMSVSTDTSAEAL
Measurement Protocol: functional cAMP assay, human CB1
Format: cell-based
Condition Parameters: CHO cells expressing human CB1, cAMP; read-out: human CB1 EC50
# reported EC50; entries follow
Reply numerically in nM, unit not repeated.

Sample records with EC50:
Compound: CC(C)(C)c1nc(N2CCC(F)(F)C2)c2nnn(Cc3ccncc3Cl)c2n1 [Example 129]
Study System: human CB1 receptors (Homo sapiens, UniProt P21554)
EC50 [nM]: 670
//
Compound: CC(C)(C)c1nc(N2CCC(F)(F)C2)c2nnn(Cc3ccccc3C#N)c2n1 [Example 83]
Study System: human CB1 receptors (Homo sapiens, UniProt P21554)
EC50 [nM]: 283

QUERY: Please report the recorded EC50 for CC(C)(C)c1nc(N2CCC(F)(F)C2)c2nnn(Cc3c(Cl)ccc(Cl)c3Cl)c2n1 [Example 119] .
RESULT: 91
